# SYSTEM TESTED: T1, Human CD3eg linker (human)
# T1 construct: Single chain: CD3 epsilon and gamma subunits joined by a 29-mer linker, Flag-tag at the C-terminus; also called recombinant human CD3
# T1 chain: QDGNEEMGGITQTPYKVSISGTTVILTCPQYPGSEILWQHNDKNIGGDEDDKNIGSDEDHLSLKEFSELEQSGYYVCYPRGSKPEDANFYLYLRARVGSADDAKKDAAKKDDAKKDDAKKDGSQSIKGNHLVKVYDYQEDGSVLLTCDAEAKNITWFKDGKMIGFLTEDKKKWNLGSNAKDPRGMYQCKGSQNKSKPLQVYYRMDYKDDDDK
# METHOD DESCRIPTION: affinity relative to template H183/L072, single-mutation scan
fold change of affinity for CD3 by entry:
# number only, unit fold dropped from output

Q) Which fold change of affinity for CD3 reading was recorded for the binder H183/L072 with F96Y (Kabat) in VL dBBDu072L (antibody, name in Kabat numbering, V domains shown, Single-mutation variant of H183L072) VH: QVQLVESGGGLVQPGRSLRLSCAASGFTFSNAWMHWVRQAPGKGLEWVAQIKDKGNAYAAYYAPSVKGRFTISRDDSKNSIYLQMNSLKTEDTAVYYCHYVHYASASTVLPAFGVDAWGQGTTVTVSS VL: DIVMTQSPLSLPVTPGEPASISCQASQELVHMNRNTYLHWYQQKPGQAPRLLIYKVSNRFPGVPDRFSGSGSGTDFTLKISRVEAEDVGVYYCAQGTSVPYTFGQGTKLEIK ?
A) 0.4

Q) Which fold change of affinity for CD3 reading was recorded for the binder H183/L072 with S93Y (Kabat) in VL dBBDu072L (antibody, name in Kabat numbering, V domains shown, Single-mutation variant of H183L072) VH: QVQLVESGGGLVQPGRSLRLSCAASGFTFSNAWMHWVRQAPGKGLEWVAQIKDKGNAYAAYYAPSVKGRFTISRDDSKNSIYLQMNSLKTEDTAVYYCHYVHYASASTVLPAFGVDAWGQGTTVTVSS VL: DIVMTQSPLSLPVTPGEPASISCQASQELVHMNRNTYLHWYQQKPGQAPRLLIYKVSNRFPGVPDRFSGSGSGTDFTLKISRVEAEDVGVYYCAQGTYVPFTFGQGTKLEIK ?
A) 0.7

Q) Which fold change of affinity for CD3 reading was recorded for the binder H183/L072 with N53Y (Kabat) in VL dBBDu072L (antibody, name in Kabat numbering, V domains shown, Single-mutation variant of H183L072) VH: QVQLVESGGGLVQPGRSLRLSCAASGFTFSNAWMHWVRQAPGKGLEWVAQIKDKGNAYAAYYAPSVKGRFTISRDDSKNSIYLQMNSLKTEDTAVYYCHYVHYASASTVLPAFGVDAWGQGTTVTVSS VL: DIVMTQSPLSLPVTPGEPASISCQASQELVHMNRNTYLHWYQQKPGQAPRLLIYKVSYRFPGVPDRFSGSGSGTDFTLKISRVEAEDVGVYYCAQGTSVPFTFGQGTKLEIK ?
A) 0.7

# credit: patent US20210388087A1
